All figures here come from the supplement of paper PMC5998384.

So I've got a bunch of sequences here, and I need their melting temperature values.
- System: HeLa Kyoto
- ASSAY DETAILS: melting temperature (median over replicates), in situ; higher = more thermally stable
- CONDITION SET: cell cycle stage: G1/S
Please give the number followed by its unit.

>>> result("MGTRDDEYDYLFKVVLIGDSGVGKSNLLSRFTRNEFNLESKSTIGVEFATRSIQVDGKTIKAQIWDTAGQERYRAITSAYYRGAVGALLVYDIAKHLTYENVERWLKELRDHADSNIVIMLVGNKSDLRHLRAVPTDEARAFAEKNNLSFIETSALDSTNVEEAFKNILTEIYRIVSQKQIADRAAHDESPGNNVVDISVPPTTDGQKPNKLQCCQNL [RAB11B]")
"57.1 °C"

Give measured melting temperature for every item shown.
1. MTSMTQSLREVIKAMTKARNFERVLGKITLVSAAPGKVICEMKVEEEHTNAIGTLHGGLTATLVDNISTMALLCTERGAPGVSVDMNITYMSPAKLGEDIVITAHVLKQGKTLAFTSVDLTNKATGKLIAQGRHTKHLGN [ACOT13]
2. MAAAAPNAGGSAPETAGSAEAPLQYSLLLQYLVGDKRQPRLLEPGSLGGIPSPAKSEEQKMIEKAMESCAFKAALACVGGFVLGGAFGVFTAGIDTNVGFDPKDPYRTPTAKEVLKDMGQRGMSYAKNFAIVGAMFSCTECLIESYRGTSDWKNSVISGCITGGAIGFRAGLKAGAIGCGGFAAFSAAIDYYLR [TIMM22]
3. MSLTSSSSVRVEWIAAVTIAAGTAAIGYLAYKRFYVKDHRNKAMINLHIQKDNPKIVHAFDMEDLGDKAVYCRCWRSKKFPFCDGAHTKHNEETGDNVGPLIIKKKET [CISD1]
4. MSEGDSVGESVHGKPSVVYRFFTRLGQIYQSWLDKSTPYTAVRWVVTLGLSFVYMIRVYLLQGWYIVTYALGIYHLNLFIAFLSPKVDPSLMEDSDDGPSLPTKQNEEFRPFIRRLPEFKFWHAATKGILVAMVCTFFDAFNVPVFWPILVMYFIMLFCITMKRQIKHMIKYRYIPFTHGKRRYRGKEDAGKAFAS [RER1]
5. MSLSDWHLAVKLADQPLTPKSILRLPETELGEYSLGGYSISFLKQLIAGKLQESVPDPELIDLIYCGRKLKDDQTLDFYGIQPGSTVHVLRKSWPEPDQKPEPVDKVAAMREFRVLHTALHSSSSYREAVFKMLSNKESLDQIIVATPGLSSDPIALGVLQDKDLFSVFADPNMLDTLVPAHPALVNAIVLVLHSVAGSAPMPGTDSSSRSMPSSSYRDMPGGFLFEGLSDDEDDFHPNTRSTPSSSTPSSRPASLGYSGAAGPRPITQSELATALALASTPESSSHTPTPGTQGHSSGTSPMSSGVQSGTPITNDLFSQALQHALQASGQPSLQSQWQPQLQQLRDMGIQDDELSLRALQATGGDIQAALELIFAGGAP [UBL7]

Response:
1: 56.4 °C; 2: 56 °C; 3: 57.1 °C; 4: 55.1 °C; 5: 50.8 °C

Give measured melting temperature for every item shown.
1. MQPPPPGPLGDCLRDWEDLQQDFQNIQETHRLYRLKLEELTKLQNNCTSSITRQKKRLQELALALKKCKPSLPAEAEGAAQELENQMKERQGLFFDMEAYLPKKNGLYLSLVLGNVNVTLLSKQAKFAYKDEYEKFKLYLTIILILISFTCRFLLNSRVTDAAFNFLLVWYYCTLTIRESILINNGSRIKGWWVFHHYVSTFLSGVMLTWPDGLMYQKFRNQFLSFSMYQSFVQFLQYYYQSGCLYRLRALGERHTMDLTVEGFQSWMWRGLTFLLPFLFFGHFWQLFNALTLFNLAQDPQCKEWQVLMCGFPFLLLFLGNFFTTLRVVHHKFHSQRHGSKKD [TMEM120A]
2. MPILKQLVSSSVHSKRRSRADLTAEMISAPLGDFRHTMHVGRAGDAFGDTSFLNSKAGEPDGESLDEQPSSSSSKRSLLSRKFRGSKRSQSVTRGEREQRDMLGSLRDSALFVKNAMSLPQLNEKEAAEKGTSKLPKSLSSSPVKKANDGEGGDEEAGTEEAVPRRNGAAGPHSPDPLLDEQAFGDLTDLPVVPKATYGLKHAESIMSFHIDLGPSMLGDVLSIMDKEEWDPEEGEGGYHGDEGAAGTITQAPPYAVAAPPLARQEGKAGPDLPSLPSHALEDEGWAAAAPSPGSARSMGSHTTRDSSSLSSCTSGILEERSPAFRGPDRARAAVSRQPDKEFSFMDEEEEDEIRV [CDC42EP4]
3. MSLKLQASNVTNKNDPKSINSRVFIGNLNTALVKKSDVETIFSKYGRVAGCSVHKGYAFVQYSNERHARAAVLGENGRVLAGQTLDINMAGEPKPDRPKGLKRAASAIYSGYIFDYDYYRDDFYDRLFDYRGRLSPVPVPRAVPVKRPRVTVPLVRRVKTNVPVKLFARSTAVTTSSAKIKLKSSELQAIKTELTQIKSNIDALLSRLEQIAAEQKANPDGKKKGDGGGAGGGGGGGGSGGGGSGGGGGGGSSRPPAPQENTTSEAGLPQGEARTRDDGDEEGLLTHSEEELEHSQDTDADDGALQ [RALY]

Response:
["54.2 °C", "53.6 °C", "47.1 °C"]

Give measured melting temperature for every item shown.
1. MSRGPSSAVLPSALGSRKLGPRSLSCLSDLDGGVALEPRACRPPGSPGRAPPPTPAPSGCDPRLRPIILRRARSLPSSPERRQKAAGAPGAACRPGCSQKLRVRFADALGLELAQVKVFNAGDDPSVPLHVLSRLAINSDLCCSSQDLEFTLHCLVPDFPPPVEAADFGERLQRQLVCLERVTCSDLGISGTVRVCNVAFEKQVAVRYTFSGWRSTHEAVARWRGPAGPEGTEDVFTFGFPVPPFLLELGSRVHFAVRYQVAGAEYWDNNDHRDYSLTCRNHALHMPRGECEESWIHFI [PPP1R3D]
2. MALLSTVRGATWGRLVTRHFSHAARHGERPGGEELSRLLLDDLVPTSRLELLFGMTPCLLALQAARRSVARLLLQAGKAGLQGKRAELLRMAEARDIPVLRPRRQKLDTMCRYQVHQGVCMEVSPLRPRPWREAGEASPGDDPQQLWLVLDGIQDPRNFGAVLRSAHFLGVDKVITSRRNSCPLTPVVSKSSAGAMEVMDVFSTDDLTGFLQTKAQQGWLVAGTVGCPSTEDPQSSEIPIMSCLEFLWERPTLLVLGNEGSGLSQEVQASCQLLLTILPRRQLPPGLESLNVSVAAGILLHSICSQRKGFPTEGERRQLLQDPQEPSARSEGLSMAQHPGLSSGPEKERQNEG [MRM1]

Response:
1: 51.7 °C; 2: 53.3 °C

----------
- Test system: HeLa Kyoto
- ASSAY DETAILS: thermal stability score vs G1/S (z-score of summed log2 fold changes over temperatures); higher = more thermally stable than in G1/S
- CONDITION SET: cell cycle stage: mitosis
PROPERTY MEASURED: thermal stability score

Below are worked cases with known answers.
>>> result("MDRFVWTSGLLEINETLVIQQRGVRIYDGEEKIKFDAGTLLLSTHRLIWRDQKNHECCMAILLSQIVFIEEQAAGIGKSAKIVVHLHPAPPNKEPGPFQSSKNSYIKLSFKEHGQIEFYRRLSEEMTQRRWENMPVSQSLQTNRGPQPGRIRAVGIVGIERKLEEKRKETDKNISEAFEDLSKLMIKAKEMVELSKSIANKIKDKQGDITEDETIRFKSYLLSMGIANPVTRETYGSGTQYHMQLAKQLAGILQVPLEERGGIMSLTEVYCLVNRARGMELLSPEDLVNACKMLEALKLPLRLRVFDSGVMVIELQSHKEEEMVASALETVSEKGSLTSEEFAKLVGMSVLLAKERLLLAEKMGHLCRDDSVEGLRFYPNLFMTQS [VPS36]")
2.15
>>> result("MALLALLLVVALPRVWTDANLTARQRDPEDSQRTDEGDNRVWCHVCERENTFECQNPRRCKWTEPYCVIAAVKIFPRFFMVAKQCSAGCAAMERPKPEEKRFLLEEPMPFFYLKCCKIRYCNLEGPPINSSVFKEYAGSMGESCGGLWLAILLLLASIAAGLSLS [LY6K]")
2.04
>>> result("MASDSGNQGTLCTLEFAVQMTCQSCVDAVRKSLQGVAGVQDVEVHLEDQMVLVHTTLPSQEVQALLEGTGRQAVLKGMGSGQLQNLGAAVAILGGPGTVQGVVRFLQLTPERCLIEGTIDGLEPGLHGLHVHQYGDLTNNCNSCGNHFNPDGASHGGPQDSDRHRGDLGNVRADADGRAIFRMEDEQLKVWDVIGRSLIIDEGEDDLGRGGHPLSKITGNSGERLACGIIARSAGLFQNPKQICSCDGLTIWEERGRPIAGKGRKESAQPPAHL [CCS]")
0.694
>>> result("MAAVKDSCGKGEMATGNGRRLHLGIPEAVFVEDVDSFMKQPGNETADTVLKKLDEQYQKYKFMELNLAQKKRRLKGQIPEIKQTLEILKYMQKKKESTNSMETRFLLADNLYCKASVPPTDKVCLWLGANVMLEYDIDEAQALLEKNLSTATKNLDSLEEDLDFLRDQFTTTEVNMARVYNWDVKRRNKDDSTKNKA [VBP1]")
-5.3

Give measured thermal stability score for every item shown.
1. MALPFRKDLEKYKDLDEDELLGNLSETELKQLETVLDDLDPENALLPAGFRQKNQTSKSTTGPFDREHLLSYLEKEALEHKDREDYVPYTGEKKGKIFIPKQKPVQTFTEEKVSLDPELEEALTSASDTELCDLAAILGMHNLITNTKFCNIMGSSNGVDQEHFSNVVKGEKILPVFDEPPNPTNVEESLKRTKENDAHLVEVNLNNIKNIPIPTLKDFAKALETNTHVKCFSLAATRSNDPVATAFAEMLKVNKTLKSLNVESNFITGVGILALIDALRDNETLAELKIDNQRQQLGTAVELEMAKMLEENTNILKFGYQFTQQGPRTRAANAITKNNDLVRKRRVEGDHQ [TMOD3]
2. MAAAGAFRLRRAASALLLRSPRLPARELSAPARLYHKKVVDHYENPRNVGSLDKTSKNVGTGLVGAPACGDVMKLQIQVDEKGKIVDARFKTFGCGSAIASSSLATEWVKGKTVEEALTIKNTDIAKELCLPPVKLHCSMLAEDAIKAALADYKLKQEPKKGEAEKK [ISCU]

Response:
[0.573, -2.36]
